tested_system: LC3B (Homo sapiens, UniProt Q9GZQ8)
assay_info: Fluorescence Polarization (FP) Assay: displacement of FITC-labeled peptide from GST-LC3B
Type: binding
condition_parameters: Fluorescence Polarization assay; GST-LC3B 180 nM, FITC-labeled peptide 18 nM, 25° C.; read-out: IC50
Structures can show the parent of a compound that is named as a salt.
Documented IC50 across a set of compounds

The examples below pair each entry with its known result.
compound="O=C1CC(c2ccc(OCCOc3ccncc3)cc2)CC(=O)C1=CNCCN1CCN(CCO)CC1 (stereo not drawn)" experimental_value="15 to 100 µM"
compound="CN(C)C=C1C(=O)CC(c2cccc3c2CCCC3)CC1=O (stereo not drawn)" experimental_value="< 3 µM"
compound="CN(C)CCCCNC=C1C(=O)CC(c2ccccc2)CC1=O (stereo not drawn)" experimental_value="3 to 15 µM"
compound="CN(C)C=C1C(=O)CC(c2cccc(C(=O)NCCc3ccccc3)c2)CC1=O (stereo not drawn)" experimental_value="3 to 15 µM"
compound="O=C1CC(c2ccsc2)CC(=O)C1=CO (stereo not drawn) [Compound 456, lithium salt]" experimental_value="3 to 15 µM"
compound="CCOC(=O)C1C(=O)/C(=C\\NCCN2CCN(CCO)CC2)C(=O)CC1c1cccc2[nH]ccc12 (stereo not drawn)" experimental_value="3 to 15 µM"
compound="O=C1CC([C@H]2O[C@@H](n3cnc4c(N5CCOCC5)ncnc43)[C@H](O)[C@@H]2O)CC(=O)C1=CNCCN1CCN(CCO)CC1 (stereo partly drawn)" experimental_value="100 to 1000 µM"
compound=O=C1Nc2c(cccc2[N+](=O)[O-])C(=O)/C1=C/NCCN1CCN(CCO)CC1 experimental_value="< 3 µM"
compound="N#CC1C(=O)C(=CNCCN2CCN(CCO)CC2)C(=O)CC1c1ccccc1 (stereo not drawn)" experimental_value="< 3 µM"
compound="O=C1CC(c2ccccc2)CC(=O)C1=CNCc1cc2ccccc2[nH]1 (stereo not drawn)" experimental_value="100 to 1000 µM"

[ask] Tell me the measured IC50 of O=C(NCCN1CCN(CCO)CC1)C1C(=O)Nc2ccccc2C1=O (stereo not drawn) , please.
[reply] 100 to 1000 µM

[ask] Recorded IC50 of O=C1CC(COc2ccccc2)CC(=O)C1=CNCCN1CCN(CCO)CC1 (stereo not drawn) , please.
[reply] 3 to 15 µM

[ask] Fill in the blank: the reported IC50 of CN(C)CCNC=C1C(=O)CC(c2cc(F)ccc2F)CC1=O (stereo not drawn) is ____.
[reply] < 3 µM

====

Some compounds, each annotated with its measured IC50.
tested_system: LC3B (Homo sapiens)
assay_info: Fluorescence Polarization (FP) Assay: displacement of FITC-labeled peptide from GST-LC3B
Type: binding
condition_parameters: Fluorescence Polarization assay; GST-LC3B 180 nM, FITC-labeled peptide 18 nM, 25° C.; read-out: IC50

compound="CCN1CCN(CCNC=C2C(=O)CC(c3ccc(C)cc3)CC2=O)CC1 (stereo not drawn)" experimental_value="< 3 µM"
compound="O=C1CC(c2ccccc2)CC(=O)C1=CNc1ncc([N+](=O)[O-])s1 (stereo not drawn)" experimental_value="< 3 µM"
compound="O=C1CC(c2ccco2)CC(=O)C1=CNCCN1CCN(CCO)CC1 (stereo not drawn)" experimental_value="3 to 15 µM"
compound="O=C1CC(c2ccc(-n3ccnc3)nc2)CC(=O)C1=CNCCN1CCN(CCO)CC1 (stereo not drawn)" experimental_value="15 to 100 µM"
compound="O=C1CC(c2cccs2)CC(=O)C1=CNCCN1CCN(CCO)CC1 (stereo not drawn)" experimental_value="< 3 µM"
compound="O=C1CC(c2ccc([N+](=O)[O-])cc2)CC(=O)C1=CO (stereo not drawn)" experimental_value="3 to 15 µM"

[ask] What is its IC50 for LC3B (Homo sapiens)? Entry: CN(C)C=C1C(=O)CC(c2ccc(N(C)C)cc2)CC1=O (stereo not drawn)
[reply] 3 to 15 µM

[ask] Enter reported IC50 observed with LC3B (Homo sapiens) for O=C1CC(c2cccc3[nH]ccc23)CC(=O)C1=CNCCN1CCN(CCO)CC1 (stereo not drawn)
[reply] < 3 µM

[ask] API: value(readout=IC50, system=LC3B (Homo sapiens)) for record O=C1CC(c2ccc(-c3nccs3)cc2)CC(=O)C1=CNCCN1CCN(CCO)CC1 (stereo not drawn)
[reply] 15 to 100 µM

====

tested_system: UniProt Q9GZQ8
assay_info: Fluorescence Polarization (FP) Assay: displacement of FITC-labeled peptide from GST-LC3B
Assay type: binding
condition_parameters: Fluorescence Polarization assay; GST-LC3B 180 nM, FITC-labeled peptide 18 nM, 25° C.; read-out: IC50
reported_metric: IC50

[ask] Consider the compound shown here: Cc1ccc(C2CC(=O)C(=CNCCN3CCN(C(=O)N(C)C)CC3)C(=O)C2)cc1 (stereo not drawn) What is its recorded IC50?
[reply] < 3 µM

[ask] Find the recorded IC50 belonging to O=C1CC(C(=O)N2CCOCC2)CC(=O)C1=CNCCN1CCN(CCO)CC1 (stereo not drawn) and report it.
[reply] 100 to 1000 µM

[ask] Would you kindly share the measured IC50 for O=C1CC(c2cccc(F)c2F)CC(=O)C1=CO (stereo not drawn) ?
[reply] < 3 µM

[ask] // returns reported IC50 for input O=C1CC(c2ccccc2)CC(=O)C1=CNCCN1CCN(C(=O)c2cccnc2)CC1 (stereo not drawn)
[reply] < 3 µM

[ask] Entry under review: CN(C)C=C1C(=O)CC(Cc2ccccc2)CC1=O (stereo not drawn) . Reported IC50?
[reply] 3 to 15 µM

[ask] Recorded IC50 of CN(C)CCNC=C1C(=O)CC(c2cscc2Br)CC1=O (stereo not drawn) , please.
[reply] < 3 µM

[ask] Need IC50 of O=C1CC(c2ccccc2C2CC2)CC(=O)C1=CNCCN1CCN(CCO)CC1 (stereo not drawn) , thanks.
[reply] < 3 µM

[ask] Any idea what IC50 was measured for O=C1CC(c2ccccc2)CC(=O)C1=CNC(=O)c1ccccn1 (stereo not drawn) ?
[reply] 3 to 15 µM

[ask] # get_value(readout='IC50', item= CC(C)C(=O)N1CCN(CCNC=C2C(=O)CC(c3ccccc3)CC2=O)CC1 (stereo not drawn) )
[reply] < 3 µM

====

tested_system: LC3B (Homo sapiens)
assay_info: Fluorescence Polarization (FP) Assay: displacement of FITC-labeled peptide from GST-LC3B
Format: binding
condition_parameters: Fluorescence Polarization assay; GST-LC3B 180 nM, FITC-labeled peptide 18 nM, 25° C.; read-out: IC50
Entries and their IC50 values follow.

compound="O=C1CC(c2cccc(F)c2)CC(=O)C1=CO (stereo not shown)" experimental_value="3 to 15 µM"
compound="O=C1C(=CNCCN2CCN(CCO)CC2)C(=O)C(c2ccccc2)CC1Cc1ccccc1 (stereo not shown)" experimental_value="15 to 100 µM"
compound="CC(=O)Nc1ccccc1C1CC(=O)C(=CNCCN(C)C)C(=O)C1 (stereo not shown)" experimental_value="3 to 15 µM"
compound="O=C1CC(C2CC2)CC(=O)C1=CNCCN1CCN(CCO)CC1 (stereo not shown)" experimental_value="100 to 1000 µM"
compound="CC(NC=C1C(=O)CC(c2ccccc2)CC1=O)c1ccccn1 (stereo not shown)" experimental_value="15 to 100 µM"

[ask] Which IC50 reading was recorded for the compound CN(C)CCNC=C1C(=O)CC(c2cc(C(F)(F)F)ccc2F)CC1=O (stereo not shown) ?
[reply] < 3 µM

[ask] Look at this compound and give its reported IC50. C[C@H](NC=C1C(=O)CC(c2ccccc2)CC1=O)C(=O)OCc1ccccc1 (stereo partly shown)
[reply] 100 to 1000 µM

[ask] Look up IC50 for this compound: O=C1CC(c2ccccc2)CC(=O)C1=C(NCCN1CCN(CCO)CC1)c1ccccc1 (stereo not shown)
[reply] 100 to 1000 µM

[ask] What does the data say about its IC50? Entry: CC(C)CNC(=O)C1CC(=O)C(=CN(C)C)C(=O)C1 (stereo not shown)
[reply] 15 to 100 µM

[ask] So what's the measured IC50 for this one? CCCCn1cccc1C1CC(=O)C(=CN(C)C)C(=O)C1 (stereo not shown)
[reply] 3 to 15 µM

====

tested_system: LC3B (Homo sapiens, UniProt Q9GZQ8)
assay_info: Fluorescence Polarization (FP) Assay: displacement of FITC-labeled peptide from GST-LC3B
Assay type: binding
condition_parameters: Fluorescence Polarization assay; GST-LC3B 180 nM, FITC-labeled peptide 18 nM, 25° C.; read-out: IC50
pIC50: −log10 of the molar value.
reported_metric: pIC50

Consider the worked cases shown below.
compound="CCCNC(=O)C1CC(=O)C(=CN(C)C)C(=O)C1 (stereo not shown) [Compound 274]" tested_system="LC3B (Homo sapiens, UniProt Q9GZQ8)" experimental_value="4.00 to 4.82"
compound="COCCn1ccc2c(C3CC(=O)C(=CNCCN4CCN(CCO)CC4)C(=O)C3)ccnc21 (stereo not shown) [Compound 19]" tested_system="LC3B (Homo sapiens, UniProt Q9GZQ8)" experimental_value="4.00 to 4.82"

[ask] pIC50 of O=C1CC(c2cccc(F)c2F)CC(=O)C1=CNCCN1CCN(CCO)CC1 (stereo not shown) [Compound 387] on LC3B (Homo sapiens, UniProt Q9GZQ8)?
[reply] > 5.52

[ask] Short answer please: pIC50, LC3B (Homo sapiens, UniProt Q9GZQ8), entry Cc1ccc(C2CC(=O)C(=CNCCN3CCNCC3)C(=O)C2)cc1 (stereo not shown) [Compound 237]
[reply] 4.82 to 5.52

[ask] Under LC3B (Homo sapiens, UniProt Q9GZQ8): pIC50 value of O=C1CC(c2ncnc3sccc23)CC(=O)C1=CNCCN1CCN(CCO)CC1 (stereo not shown) [Compound 27] ?
[reply] 4.00 to 4.82

[ask] What measured pIC50 is associated with O=C1CC(c2ccccn2)CC(=O)C1=CNCCN1CCN(CCO)CC1 (stereo not shown) [Compound 53] on LC3B (Homo sapiens, UniProt Q9GZQ8)?
[reply] 4.00 to 4.82

[ask] Hi! What's the reported pIC50 for O=C1CC(c2c[nH]cn2)CC(=O)C1=CNCCN1CCN(CCO)CC1 (stereo not shown) [Compound 59] on LC3B (Homo sapiens, UniProt Q9GZQ8)?
[reply] 3.00 to 4.00

[ask] Item: CN(C)CCNC=C1C(=O)CC(c2cc(C(F)(F)F)ccc2Br)CC1=O (stereo not shown) [Compound 362] Test system: LC3B (Homo sapiens, UniProt Q9GZQ8) Read-out: pIC50 Value: ?
[reply] > 5.52

[ask] Form field - read-out: pIC50; system: LC3B (Homo sapiens, UniProt Q9GZQ8); submitted item: COCCN1c2ccccc2Sc2cc(C3CC(=O)C(=CNCCN4CCN(CCO)CC4)C(=O)C3)ccc21 (stereo not shown) [Compound 84]
[reply] 4.00 to 4.82
